Listed compounds paired with reported pEC50
experimental system: CXCR3 (Homo sapiens)
Construct: host or cells: CHO-K1 (cAMP Hunter CHOK1 CXCR3 Gi cell line)
Sequence (P49682 1-368): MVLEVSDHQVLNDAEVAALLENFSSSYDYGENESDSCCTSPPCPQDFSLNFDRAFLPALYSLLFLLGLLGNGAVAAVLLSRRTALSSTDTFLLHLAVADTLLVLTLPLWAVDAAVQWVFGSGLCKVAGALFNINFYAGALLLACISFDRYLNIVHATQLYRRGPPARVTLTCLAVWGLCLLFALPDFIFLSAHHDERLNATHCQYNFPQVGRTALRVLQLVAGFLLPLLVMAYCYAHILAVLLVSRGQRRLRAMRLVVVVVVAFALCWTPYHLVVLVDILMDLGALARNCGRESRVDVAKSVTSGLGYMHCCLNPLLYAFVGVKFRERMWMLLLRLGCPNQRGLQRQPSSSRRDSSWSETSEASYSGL
test name: CXCR3 cAMP agonist assay (cAMP Hunter CHOK1 CXCR3 Gi cell line, forskolin-stimulated, HitHunter cAMP detection)
Assay type: cell-based
applied conditions: cAMP Hunter CHOK1 CXCR3 Gi cells, 20 μM forskolin, 30 minutes; read-out: Activity (CXCR3 cAMP agonist assay compound EC50)
Procedure: The cAMP Hunter™ CHOK1 CXCR3 Gi cell line was purchased from DiscoveRx. Cells were seeded into a 96-well white assay plate at 50,000 cells/well/94 μl assay buffer (Hank's Buffered Saline Solution, 10 mM HEPES, 0.1% fatty acid-free BSA, pH 7.4) and immediately assayed in suspension. […] Direct detection of cAMP was carried out using the DiscoveRx HitHunter cAMP kit according to manufacturer's instructions, and luminescence was read using a SpectraMax M5 plate reader.
pEC50: −log10 of the molar value.

For orientation, consider the following solved cases.
- Cc1cc(NC(=O)[C@H](CCN)NC(=O)[C@@H]2Cc3ccccc3CN2C(=O)CCC(=O)c2ccccc2)cc(C)c1Cl [Compound 2-39]: > 7.30
- NCC[C@H](NC(=O)[C@@H]1Cc2ccccc2CN1C(=O)CCC(=O)c1ccccc1)C(=O)Nc1ccc(Cl)c(F)c1 [Compound 2-12]: 6.30 to 6.60
- Cc1ccc(C(F)(F)F)c(NC(=O)[C@H](CCN)NC(=O)[C@@H]2Cc3ccccc3CN2C(=O)CCC(=O)c2ccccc2)c1 [Compound 14-17]: > 7.30
- NCC[C@H](NC(=O)[C@@H]1Cc2ccccc2CN1C(=O)CCC(=O)c1ccccc1)C(=O)NC1Cc2ccccc2C1 [Compound 2-66]: > 7.30

Entry Cc1cc(NC(=O)[C@H](CCCCNC(C)C)NC(=O)[C@@H]2Cc3ccccc3CN2C(=O)CCC(=O)c2ccccc2)ccc1Cl [Compound 4-6] has what pEC50? > 7.30

Which pEC50 is listed for Cc1cc(NC(=O)[C@H](CCN)NC(=O)[C@@H]2Cc3ccccc3CN2C(=O)CCC(=O)N2CCCCC2(C)C)ccc1Cl [Compound 12-26] ? > 7.30

I'd like to know its pEC50. The compound in question is COc1cc(F)ccc1NC(=O)[C@H](CCN)NC(=O)[C@@H]1Cc2ccccc2CN1C(=O)CCC(=O)c1ccccc1 [Compound 13-6] < 6.30

What does the record list as pEC50 for CC(C)NCC[C@H](NC(=O)[C@@H]1Cc2ccccc2CN1C(=O)CCC(=O)c1ccccc1)C(=O)Nc1ccc(Cl)c(Cl)c1F [Compound 8-7] ? > 7.30

Could you share which pEC50 value was measured for CN(CC(C)(C)C)C(=O)CCC(=O)N1Cc2ccccc2C[C@H]1C(=O)NC1(C(=O)Nc2ccc(Cl)c(Cl)c2F)CCNCC1 [Compound 12-137] ? 6.60 to 7.30

Item under review: Cc1cc(NC(=O)[C@H](CCCCN)NC(=O)[C@@H]2Cc3ccccc3CN2C(=O)CCC(=O)c2ccccc2)ccc1Cl (stereo in doubt) [Compound 4-2] . Reported pEC50? 6.30 to 6.60

Recorded pEC50 for NCCCC[C@H](NC(=O)[C@@H]1Cc2ccccc2CN1C(=O)CCC(=O)c1ccccc1)C(=O)Nc1cc(Cl)cc(Cl)c1 [Compound 1-17] , please? 6.60 to 7.30

# query: pEC50 of entry Cc1cc(NC(=O)[C@@H](Cc2cc3ccccc3[nH]2)NC(=O)[C@@H]2Cc3ccccc3CN2C(=O)CCC(=O)c2ccccc2)ccc1Cl [Compound 4-5] < 6.30

Fill in the blank: the reported pEC50 of NCC[C@H](NC(=O)[C@@H]1Cc2ccccc2CN1C(=O)CCC(=O)c1ccccc1)C(=O)Nc1c(F)cccc1Cl [Compound 14-9] is ____. 6.30 to 6.60

What does the data say about its pEC50? Entry: Cc1ccc(NC(=O)C2(NC(=O)[C@@H]3Cc4ccccc4CN3C(=O)CCC(=O)c3ccccc3)CCNCC2)c(F)c1 [Compound 13-2] 6.60 to 7.30

Bench note: what pEC50 did NCC[C@H](NC(=O)[C@@H]1Cc2ccccc2CN1C(=O)CCC(=O)N1CCc2ccccc2C1)C(=O)Nc1ccc(Cl)c(Cl)c1F [Compound 15-8] show? > 7.30

Looking for the measured pEC50 of NCCCC[C@H](NC(=O)[C@@H]1Cc2ccccc2CN1C(=O)CCC(=O)c1ccccc1)C(=O)Nc1ccc(Cl)c(F)c1 [Compound 1-20] , can you help? 6.60 to 7.30

For CCN(CC)C(=O)CCC(=O)N1Cc2ccccc2C[C@H]1C(=O)N[C@@H](CCN)C(=O)Nc1ccc(Cl)c(C)c1 [Compound 12-14] , what is its reported pEC50? 6.60 to 7.30

Name the reported pEC50 value associated with the compound Cc1cc(NC(=O)[C@H](CCN2CCOCC2)NC(=O)[C@@H]2Cc3ccccc3CN2C(=O)CCC(=O)c2ccccc2)ccc1Cl [Compound 5-4] 6.60 to 7.30

Numbers sourced from patent US11040954B1.
